tested on: HeLa; assay: Antiproliferative activity against human HeLa cells assessed as inhibition of cell growth incubated for 24 hrs by MTS assay; assay type: functional, cell-based
pIC50: −log10 of the molar value.
reported-property: pIC50

>>> measurement("Oc1cc2c(cc1O)C(c1ccccc1)N(C(=S)NCCc1ccc(Cl)cc1)CC2 (stereo unspecified)")
"~5.30"

* * *

tested on: B16-F10; experiment: Antiproliferative activity against B16-F10 cells assessed as inhibition of cell growth measured after 24 hrs by MTT assay; type: functional, cell-based; details: Mus musculus, B16-F10, 24 h
# IC50 annotations
reported-property: IC50

>>> measurement("COc1cc(CNC(=O)CCCC/C=C/C(C)C)ccc1O [CAPSAICIN]")
"117 µM"
>>> measurement("CCCCCCCCCCC(=O)OCc1ccc2c(c1)OCO2")
"87 µM"
>>> measurement("COc1ccc(CC(=O)OCc2ccc3c(c2)OCO3)cc1")
"117 µM"

* * *

# fold change (FC) annotations
system: CAL-27; assay: Antitumor activity against human CAL-27 cells xenografted in mouse assessed as fold decrease in tumor size at 12 mg/kg, ip measured for 4 weeks by hematoxylin and eosin staining based analysis relative to control; assay type: functional
reported-property: fold change (FC)

>>> measurement("Oc1cc2c(cc1O)C(c1ccccc1)N(C(=S)NCCc1ccc(Cl)cc1)CC2 (centres undefined)")
4
>>> measurement("Oc1cc2c(cc1O)CN(C(=S)NCCc1ccc(Cl)cc1)CC2")
2.6
>>> measurement("Oc1cc2c(cc1O)C(c1ccccc1)N(C(=S)NCc1ccccc1)CC2 (centres undefined)")
1.6
>>> measurement("Oc1cc2c(cc1O)CN(C(=S)NCCc1ccc(Cl)cc1)CCC2 [CAPSAZEPINE]")
2

* * *

system: CAL-27; assay: Antitumor activity against human CAL-27 cells xenografted in mouse assessed as mean tumor volume at 12 mg/kg, ip measured for 4 weeks by hematoxylin and eosin staining based analysis (reference value: 541 […]); assay type: functional
# Activity annotations
reported-property: Activity (mm3)

>>> measurement("Oc1cc2c(cc1O)C(c1ccccc1)N(C(=S)NCCc1ccc(Cl)cc1)CC2 (centres undefined)")
333
>>> measurement("Oc1cc2c(cc1O)C(c1ccccc1)N(C(=S)NCc1ccccc1)CC2 (centres undefined)")
134
>>> measurement("Oc1cc2c(cc1O)CN(C(=S)NCCc1ccc(Cl)cc1)CCC2 [CAPSAZEPINE]")
269
>>> measurement("Oc1cc2c(cc1O)CN(C(=S)NCCc1ccc(Cl)cc1)CC2")
211

* * *

assay: Antiproliferative activity against human SK-MEL-85 cells assessed as inhibition of cell growth incubated for 24 hrs by MTT assay; assay type: functional, cell-based; details: SK-MEL-85, 24 h
reported-property: IC50 (µM)

>>> measurement("O=S(=O)(NCc1ccc2c(c1)OCO2)c1ccccc1")
15.7

* * *

# inhibition at 24 h annotations
assay: Cytotoxicity against human OKF6/TERT-2 cells assessed as inhibition of cell growth at >7.5 uM incubated for 24 hrs by MTS assay; type: toxicity, cell-based; conditions: read-out: Activity
reported-property: inhibition at 24 h (%)

>>> measurement("Oc1cc2c(cc1O)C(c1ccccc1)N(C(=S)NCc1ccccc1)CC2 (stereo not drawn)")
20
>>> measurement("Oc1cc2c(cc1O)C(c1ccccc1)N(C(=S)NCCc1ccc(Cl)cc1)CC2 (stereo not drawn)")
20
>>> measurement("Oc1cc2c(cc1O)CN(C(=S)NCCc1ccc(Cl)cc1)CC2")
20

* * *

test system: MCF7; assay: Antiproliferative activity against human MCF7 cells assessed as inhibition of cell growth incubated for 24 hrs by MTT assay; assay type: functional, cell-based; conditions: MCF7, 24 h
pIC50: −log10 of the molar value.
reported-property: pIC50

>>> measurement("O=S(=O)(NCc1ccc2c(c1)OCO2)c1ccccc1")
4.49
